Target: T1, hCMV gH, gL, UL128, UL130 and UL131A co-expressed in HEK293T cells (human cytomegalovirus, UniProt P12824 24-743; P16832 31-278; P16837 1-171; P16772 1-214)
T1 construct: whole, on cells; also called gH + gL + UL128 + UL130 + UL131A; gH/gL/UL128-130 complex
Assay: cell cross-competition, 20x excess; competitor 8C15-biotin
ASSAY READOUT: Inhibition of binding (%)

[[record]]
binder = "9I6 (antibody, V domains shown, human IgG mAb; also called 9I6-biotin; 916) VH: EVQLVQSGAEVKKPGESLKISCRESGDTFPAYWIAWVRQMPGKGLEWMGIIYPIDSETTYSPSFQGQVTISADKSINTAYLQWSSLKASDSAIYYCARGTSTGLREAFHIWGQGTMVTVSS VL: DVVMTQSPLSLAVTLGQPAYISCRSSQSLGYSDGNTYLNWFQQRPGQSPRRLIYEVSNRDSGVPDRFSGSGSGTDFTLKISRVEAEDVGTYYCMQGTHWPPMCSFGQGTKLEIK"
measured_result = "100%"


### Prompt Tell me the measured Inhibition of binding (%) of 7I13 (antibody, V domains shown, human IgG mAb) VH: QVQLVESGGGVVQPGRSLRLSCAASGFTFSNYGMHWVRQGPGKGLEWVAVISYDASSKYYTDSVQGRFTISRDNSKNTLFLQMNSLRGEDTAVYYCAKALRYLDWFLSDPFDYWGQGTLVTVSS VL: EIVLTQSPGTLSLSPGERATLSCRASQSVSSDFLAWYQQKPGQAPRLLIYGASSRATGIPDRFSGSGSGTDFTLTISRLEPEDFAVYYCQQYAASPPFGQGTRLEIK , please.
### Response 0%
